Provenance of the data: the supplement of paper PMC11732987

- ASSAYED SYSTEM: UniProt O00507
- Sequence (O00507 whole entry, the tested form may be a part): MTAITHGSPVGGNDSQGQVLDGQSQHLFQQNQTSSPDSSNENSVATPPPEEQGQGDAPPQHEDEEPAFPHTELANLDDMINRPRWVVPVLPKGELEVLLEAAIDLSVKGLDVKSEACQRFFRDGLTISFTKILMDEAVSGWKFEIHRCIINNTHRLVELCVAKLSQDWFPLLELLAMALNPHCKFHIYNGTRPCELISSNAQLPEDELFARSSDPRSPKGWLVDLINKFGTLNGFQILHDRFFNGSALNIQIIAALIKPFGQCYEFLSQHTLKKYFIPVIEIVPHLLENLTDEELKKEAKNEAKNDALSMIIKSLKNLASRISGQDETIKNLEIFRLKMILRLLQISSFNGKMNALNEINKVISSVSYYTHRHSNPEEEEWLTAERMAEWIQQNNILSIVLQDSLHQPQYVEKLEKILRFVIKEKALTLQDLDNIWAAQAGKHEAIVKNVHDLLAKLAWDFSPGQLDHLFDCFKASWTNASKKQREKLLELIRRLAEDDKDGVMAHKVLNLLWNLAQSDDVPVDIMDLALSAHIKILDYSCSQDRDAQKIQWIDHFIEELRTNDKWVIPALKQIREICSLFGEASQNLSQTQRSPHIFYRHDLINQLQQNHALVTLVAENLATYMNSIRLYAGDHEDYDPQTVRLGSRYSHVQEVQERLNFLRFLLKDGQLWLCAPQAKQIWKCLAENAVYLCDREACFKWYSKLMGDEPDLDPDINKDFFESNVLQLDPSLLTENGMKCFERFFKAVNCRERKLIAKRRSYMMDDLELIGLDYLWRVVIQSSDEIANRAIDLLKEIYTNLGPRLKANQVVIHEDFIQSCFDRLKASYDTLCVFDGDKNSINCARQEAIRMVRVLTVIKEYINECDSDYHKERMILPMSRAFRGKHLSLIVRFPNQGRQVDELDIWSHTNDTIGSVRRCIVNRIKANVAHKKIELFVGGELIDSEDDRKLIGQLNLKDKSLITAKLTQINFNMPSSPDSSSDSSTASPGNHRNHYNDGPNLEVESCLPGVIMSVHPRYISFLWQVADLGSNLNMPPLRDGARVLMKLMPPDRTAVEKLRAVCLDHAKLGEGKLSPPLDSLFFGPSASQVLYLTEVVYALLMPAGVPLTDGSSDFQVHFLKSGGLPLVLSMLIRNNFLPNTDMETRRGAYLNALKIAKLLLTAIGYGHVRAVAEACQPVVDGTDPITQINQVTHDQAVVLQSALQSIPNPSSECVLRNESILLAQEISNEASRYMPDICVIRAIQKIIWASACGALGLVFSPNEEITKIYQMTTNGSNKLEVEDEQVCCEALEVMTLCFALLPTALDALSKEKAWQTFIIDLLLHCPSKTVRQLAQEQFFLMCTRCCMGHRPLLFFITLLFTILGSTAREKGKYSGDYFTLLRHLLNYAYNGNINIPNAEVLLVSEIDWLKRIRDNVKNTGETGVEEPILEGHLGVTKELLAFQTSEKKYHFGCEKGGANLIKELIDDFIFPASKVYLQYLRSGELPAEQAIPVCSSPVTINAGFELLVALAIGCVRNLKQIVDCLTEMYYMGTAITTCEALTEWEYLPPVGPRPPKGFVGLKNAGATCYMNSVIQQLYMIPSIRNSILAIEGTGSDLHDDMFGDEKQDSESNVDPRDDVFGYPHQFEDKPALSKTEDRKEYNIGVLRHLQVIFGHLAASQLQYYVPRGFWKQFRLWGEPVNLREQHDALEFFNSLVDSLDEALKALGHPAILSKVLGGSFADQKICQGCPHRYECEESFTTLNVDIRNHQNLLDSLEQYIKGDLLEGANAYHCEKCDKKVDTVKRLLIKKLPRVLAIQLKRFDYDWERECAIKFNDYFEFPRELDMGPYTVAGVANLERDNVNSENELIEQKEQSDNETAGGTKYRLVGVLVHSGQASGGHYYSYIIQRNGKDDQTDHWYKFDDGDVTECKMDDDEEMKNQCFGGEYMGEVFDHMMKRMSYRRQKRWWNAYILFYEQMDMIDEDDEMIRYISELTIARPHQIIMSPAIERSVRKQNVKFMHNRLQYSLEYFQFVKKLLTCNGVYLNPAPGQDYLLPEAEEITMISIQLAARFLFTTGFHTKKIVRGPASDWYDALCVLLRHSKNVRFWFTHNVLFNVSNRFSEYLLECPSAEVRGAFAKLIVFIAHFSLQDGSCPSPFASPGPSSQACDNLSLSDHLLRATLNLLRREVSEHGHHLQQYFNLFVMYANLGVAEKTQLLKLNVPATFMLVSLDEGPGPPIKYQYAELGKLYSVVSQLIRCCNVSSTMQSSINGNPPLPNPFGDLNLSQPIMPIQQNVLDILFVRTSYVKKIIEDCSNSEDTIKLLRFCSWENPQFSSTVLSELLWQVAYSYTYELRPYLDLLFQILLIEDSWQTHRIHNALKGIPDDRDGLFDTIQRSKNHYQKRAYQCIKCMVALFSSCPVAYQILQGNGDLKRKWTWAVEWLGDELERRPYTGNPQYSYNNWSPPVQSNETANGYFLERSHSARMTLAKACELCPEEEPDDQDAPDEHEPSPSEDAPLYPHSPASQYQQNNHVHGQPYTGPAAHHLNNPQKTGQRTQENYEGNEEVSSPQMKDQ
- EXPERIMENTAL DETAILS: log2 ratio of Biotin-Ahx-Ub-VS probe labelling (fragment/DMSO); higher = less target engagement (more negative = stronger competition), active = hit call of the paper (q ≤ 0.05, log2 ratio ≤ -1)
- CONDITION CONTEXT: compound concentration: 200 uM; treatment time: 3 h
Outcomes: active, inactive

* CCC1c2ccsc2CCN1C(=O)CCl (stereo not drawn) | inactive
* O=C(CCl)N1CCC2(CCC(O)CC2)CC1 | inactive
* Cc1cc(NC(=O)CCl)n(-c2ccccc2)n1 | inactive
* O=C(CCl)NC(Cn1ccccc1=O)c1ccccc1 (stereo not drawn) | inactive
* O=C(CCl)NCc1cccc(F)c1 | inactive
* CC(NC(=O)CCl)c1cccc(Cl)c1 (stereo not drawn) | inactive
* Cc1ccc(CNC(=O)CCl)nc1C.Cl | inactive
* Cc1ccc(-c2nnc(C)[nH]2)c(NC(=O)CCl)c1 | inactive
* NS(=O)(=O)c1ccc(Cl)c(NC(=O)CCl)c1 | inactive
* CNC(=O)C1CCN(C(=O)CCl)CC1 | inactive
* O=C(CCl)NCC(=O)N1CCCC1 | inactive
* Cc1conc1C1CN(C(=O)CCl)C1 | inactive
* O=C(CCl)N1CCCN(C(=O)c2ccc(Cl)cc2)CC1 | inactive
* Cl.O=C(CCl)N1CCn2ncc(O)c2C1 | inactive
* Cc1ccccc1OCC(=O)N1CCN(C(=O)CCl)CC1 | inactive
* Cc1ccc2nnc(CNC(=O)CCl)n2c1 | inactive
* Cl.O=C(CCl)NCc1cc2c(nc1O)CCCC2 | inactive
* O=C(CCl)N1CC2(CCOCC2)C1 | inactive
* O=C(CCl)N1CCC(S(=O)(=O)c2ccc(F)cc2)CC1 | inactive
* Cl.O=C(CCl)N[C@H]1C[C@@H](n2cccn2)C1 | inactive
* Cl.O=C(CCl)N1CCCC(c2ncc[nH]2)C1 (stereo not drawn) | inactive
* O=C(CCl)NCc1ccc(Cl)cc1 | inactive
* Cc1nnc(C(NC(=O)CCl)c2ccccc2)n1C (stereo not drawn) | inactive
* O=C(CCl)NCCC1COCCO1 (stereo not drawn) | inactive
* Cc1ccccc1CN(C)C(=O)CCl | active
* O=C(CCl)NCCC1=CCCCC1 | inactive
* O=C(CCl)NC1CCN(C(=O)C2CCCCC2)CC1 | inactive
* C[C@@H](NC(=O)CCl)c1cccc(C#N)c1 | inactive
* O=C(CCl)N1CCCC1c1ccsc1 (stereo not drawn) | inactive
* Cc1nc(CNC(=O)CCl)c2ccccn12.Cl | inactive
* Cc1ccc(N(C(=O)CCl)C2C=CS(=O)(=O)C2)cc1 (stereo not drawn) | inactive
* O=C(CCl)Nc1nc(-c2cccs2)cs1 | inactive
* Cl.O=C(CCl)N1CCc2ncncc2C1 | inactive

----------
- ASSAYED SYSTEM: UniProt O00487
- Sequence (O00487 whole entry, the tested form may be a part): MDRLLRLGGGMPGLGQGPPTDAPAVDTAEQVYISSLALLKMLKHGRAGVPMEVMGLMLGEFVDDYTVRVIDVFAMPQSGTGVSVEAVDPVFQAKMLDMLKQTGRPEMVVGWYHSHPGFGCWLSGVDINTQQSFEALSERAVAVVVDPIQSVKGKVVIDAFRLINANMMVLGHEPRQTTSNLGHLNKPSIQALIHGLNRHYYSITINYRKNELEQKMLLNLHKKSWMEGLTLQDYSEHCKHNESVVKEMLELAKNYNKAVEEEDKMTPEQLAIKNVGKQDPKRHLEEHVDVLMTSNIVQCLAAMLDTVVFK
- EXPERIMENTAL DETAILS: log2 ratio of Biotin-Ahx-Ub-VS probe labelling (fragment/DMSO); higher = less target engagement (more negative = stronger competition), active = hit call of the paper (q ≤ 0.05, log2 ratio ≤ -1)
- CONDITION CONTEXT: compound concentration: 200 uM; treatment time: 3 h
# binarize log2 ratio of Biotin-Ahx-Ub-VS probe labelling: threshold -0.1 inclusive, high side Condition met, low side Condition not met

* COc1ccc(Cl)cc1NC(=O)CCl | Condition not met
* CCC1c2ccsc2CCN1C(=O)CCl (configuration not stated) | Condition met
* O=C(CCl)NCc1ccc2c(c1)OCO2 | Condition not met
* N#Cc1ccc(CNC(=O)CCl)cc1 | Condition met
* Cc1cccc2nc(CCNC(=O)CCl)cn12.Cl | Condition not met
* Cc1cc(CC(C)NC(=O)CCl)n[nH]1 (configuration not stated) | Condition met
* O=C(CCl)N1CCC2(CCC(O)CC2)CC1 | Condition met

----------
# maps each entry to its log2 ratio of Biotin-Ahx-Ub-VS probe labelling
- ASSAYED SYSTEM: USP48 (UniProt Q86UV5)
- Sequence (Q86UV5 whole entry, the tested form may be a part): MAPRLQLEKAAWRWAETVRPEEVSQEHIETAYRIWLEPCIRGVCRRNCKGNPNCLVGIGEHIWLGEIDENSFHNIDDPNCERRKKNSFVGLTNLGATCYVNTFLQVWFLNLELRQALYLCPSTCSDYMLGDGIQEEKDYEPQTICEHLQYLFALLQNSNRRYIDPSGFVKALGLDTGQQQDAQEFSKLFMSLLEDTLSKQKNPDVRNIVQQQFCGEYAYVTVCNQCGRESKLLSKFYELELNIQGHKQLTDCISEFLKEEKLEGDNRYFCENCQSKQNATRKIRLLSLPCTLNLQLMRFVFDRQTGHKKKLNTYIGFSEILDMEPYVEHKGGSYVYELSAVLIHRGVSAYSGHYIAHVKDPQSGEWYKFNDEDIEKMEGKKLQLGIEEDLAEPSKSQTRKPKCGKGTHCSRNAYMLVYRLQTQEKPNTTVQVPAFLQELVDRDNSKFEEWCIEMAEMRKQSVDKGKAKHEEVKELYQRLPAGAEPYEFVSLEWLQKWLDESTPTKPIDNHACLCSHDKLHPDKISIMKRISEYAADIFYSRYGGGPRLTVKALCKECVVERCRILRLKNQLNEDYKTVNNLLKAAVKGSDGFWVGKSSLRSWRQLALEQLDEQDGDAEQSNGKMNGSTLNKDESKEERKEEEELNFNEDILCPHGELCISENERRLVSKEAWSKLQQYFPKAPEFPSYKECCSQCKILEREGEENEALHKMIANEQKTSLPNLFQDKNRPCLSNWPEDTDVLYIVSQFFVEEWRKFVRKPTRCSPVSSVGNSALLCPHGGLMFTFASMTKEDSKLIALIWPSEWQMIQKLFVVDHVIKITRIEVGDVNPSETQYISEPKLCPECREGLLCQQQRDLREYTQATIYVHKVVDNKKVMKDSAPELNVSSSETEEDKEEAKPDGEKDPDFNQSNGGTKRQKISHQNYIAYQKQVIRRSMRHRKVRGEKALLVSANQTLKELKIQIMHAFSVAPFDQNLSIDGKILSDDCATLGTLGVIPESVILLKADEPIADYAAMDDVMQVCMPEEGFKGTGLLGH
- EXPERIMENTAL DETAILS: log2 ratio of Biotin-Ahx-Ub-VS probe labelling (fragment/DMSO); higher = less target engagement (more negative = stronger competition), active = hit call of the paper (q ≤ 0.05, log2 ratio ≤ -1)
- CONDITION CONTEXT: compound concentration: 200 uM; treatment time: 3 h
MEASURED ENDPOINT: log2 ratio of Biotin-Ahx-Ub-VS probe labelling

• Cc1conc1C1CN(C(=O)CCl)C1 = -0.753
• N#Cc1ccc(Cl)cc1NC(=O)CCl = -0.305
• O=C(CCl)N1CCc2nc[nH]c2C1c1ccc(Cl)cc1 (configuration not stated) = -1.05
• O=C(CCl)N1CCC[C@@H]1c1ccon1 = -0.779
• COc1cc(Cl)c(C)cc1NC(=O)CCl = -0.36
• Cl.O=C(CCl)NC1(c2ncccn2)CCC1 = -0.0959
• Cc1cc(NC(=O)CCl)n(-c2ccccc2)n1 = 0.128

----------
- ASSAYED SYSTEM: UniProt Q5T2D3
- Sequence (Q5T2D3 whole entry, the tested form may be a part): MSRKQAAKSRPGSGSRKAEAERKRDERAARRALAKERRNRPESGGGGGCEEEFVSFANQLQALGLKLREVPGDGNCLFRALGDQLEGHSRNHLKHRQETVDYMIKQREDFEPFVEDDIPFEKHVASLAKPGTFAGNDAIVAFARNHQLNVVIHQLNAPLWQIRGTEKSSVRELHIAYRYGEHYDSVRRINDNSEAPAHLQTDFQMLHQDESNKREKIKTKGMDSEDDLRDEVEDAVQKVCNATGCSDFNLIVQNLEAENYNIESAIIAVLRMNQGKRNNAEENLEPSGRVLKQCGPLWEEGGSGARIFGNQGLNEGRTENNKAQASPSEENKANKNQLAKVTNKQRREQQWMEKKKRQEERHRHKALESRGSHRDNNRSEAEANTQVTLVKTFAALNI
- EXPERIMENTAL DETAILS: log2 ratio of Biotin-Ahx-Ub-VS probe labelling (fragment/DMSO); higher = less target engagement (more negative = stronger competition), active = hit call of the paper (q ≤ 0.05, log2 ratio ≤ -1)
- CONDITION CONTEXT: compound concentration: 200 uM; treatment time: 3 h
# binarize log2 ratio of Biotin-Ahx-Ub-VS probe labelling: threshold -0.07 inclusive, high side Criterion met, low side Criterion not met

• Cc1cccc(C)c1NC(=O)CCl = Criterion not met
• O=C(CCl)NCc1cccc(F)c1 = Criterion not met
• Cl.Cn1cnc2cc(CNC(=O)CCl)ccc21 = Criterion not met
• O=C(CCl)N1CCC(=C(F)CO)C1 = Criterion met
• O=C(CCl)N1CCOCCC1c1ccccc1 (centres undefined) = Criterion not met
• CS(=O)(=O)c1ccc(NC(=O)CCl)cc1 = Criterion not met
• CN(C)C(=O)c1ccc(NC(=O)CCl)cc1 = Criterion met
• Cc1cc(Cl)ccc1NC(=O)CCl = Criterion not met
• Cc1nc(CNC(=O)CCl)c2ccccn12.Cl = Criterion not met
• Cc1cccc(NC(=O)[C@@H]2CCCN2C(=O)CCl)n1 = Criterion not met
• CN(CCc1ncc(Br)cn1)C(=O)CCl.Cl = Criterion not met
• O=C(CCl)Nc1ccc(N2CCCC2=O)cc1 = Criterion met
• CCN(C(=O)CCl)C1CCS(=O)(=O)C1 (centres undefined) = Criterion met
• O=C(CCl)N1CCN(C(=O)N2CCCCC2)CC1 = Criterion not met

----------
- ASSAYED SYSTEM: OTUD6B (UniProt Q8N6M0)
- Sequence (Q8N6M0 whole entry, the tested form may be a part): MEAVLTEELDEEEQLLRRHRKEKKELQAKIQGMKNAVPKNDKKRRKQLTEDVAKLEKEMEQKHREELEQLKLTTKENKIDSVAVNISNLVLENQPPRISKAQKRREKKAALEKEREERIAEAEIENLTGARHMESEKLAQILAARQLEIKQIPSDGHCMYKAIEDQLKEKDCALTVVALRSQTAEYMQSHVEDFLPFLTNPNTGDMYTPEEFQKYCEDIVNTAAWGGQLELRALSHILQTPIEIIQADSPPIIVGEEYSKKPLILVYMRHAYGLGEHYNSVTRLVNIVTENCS
- EXPERIMENTAL DETAILS: log2 ratio of Biotin-Ahx-Ub-VS probe labelling (fragment/DMSO); higher = less target engagement (more negative = stronger competition), active = hit call of the paper (q ≤ 0.05, log2 ratio ≤ -1)
- CONDITION CONTEXT: compound concentration: 200 uM; treatment time: 3 h
# maps each entry to its log2 ratio of Biotin-Ahx-Ub-VS probe labelling
MEASURED ENDPOINT: log2 ratio of Biotin-Ahx-Ub-VS probe labelling

* CC(O)CC1CCN(C(=O)CCl)CC1 (configuration not stated) | -0.0339
* Cc1cccn2cc(CCNC(=O)CCl)nc12.Cl | -0.414
* O=C(CCl)NCc1cccc(N2CCCC2=O)c1 | 0.058
* CN1C(=O)c2ccc(NC(=O)CCl)cc2C1=O | -0.407
* CS(=O)(=O)N1CCCN(C(=O)CCl)CC1 | -0.512
* O=C(CCl)NCCc1cccc2ccccc12 | 0.0475
* O=C(CCl)N1c2ccccc2NC(=O)C12CCCC2 | -0.0738

----------
- ASSAYED SYSTEM: UniProt O00507
- EXPERIMENTAL DETAILS: log2 ratio of Biotin-Ahx-Ub-VS probe labelling (fragment/DMSO); higher = less target engagement (more negative = stronger competition), active = hit call of the paper (q ≤ 0.05, log2 ratio ≤ -1)
- CONDITION CONTEXT: compound concentration: 200 uM; treatment time: 3 h
# binarize log2 ratio of Biotin-Ahx-Ub-VS probe labelling: threshold -0.3 inclusive, high side 1 (yes), low side 0 (no)

• O=C(CCl)Nc1cc(Cl)ccc1C(=O)O = 1 (yes)
• CS(=O)(=O)c1ccc(CNC(=O)CCl)cc1 = 1 (yes)
• Cc1c(C#N)c(NC(=O)CCl)n(Cc2ccco2)c1C = 1 (yes)
• O=C(CCl)NC1CCC2(CC1)OCCO2 = 0 (no)
• Cl.O=C(CN1CCN(C(=O)CCl)CC1)Nc1ccc(F)cc1 = 1 (yes)
• Cc1nc(-c2cccc(NC(=O)CCl)c2)cs1 = 0 (no)
• O=C(CCl)Nc1ccc2c(c1)OC(F)(F)O2 = 1 (yes)
• N#Cc1cnn(-c2ccccc2)c1NC(=O)CCl = 0 (no)
• O=C(CCl)N1CCCCCC1c1ncon1 (centres undefined) = 1 (yes)
• O=C(CCl)N1CC=C(c2c[nH]c3ccccc23)CC1 = 0 (no)
• O=C(CCl)Nc1cccc2ncccc12 = 1 (yes)
• O=C(CCl)NCc1ccc2c(c1)OCO2 = 1 (yes)
• Cc1ccc(C(=O)NCCNC(=O)CCl)cc1 = 1 (yes)
• NC(=O)C(Cc1ccccc1)NC(=O)CCl (centres undefined) = 1 (yes)
